Listed next: entries and their corresponding binding signal (PBM E-score (-0.5 to 0.5)).
molecular target: egrh-1 (C27C12.2) (Caenorhabditis elegans)
Keep the answer to the number alone.

The following sequences have reported results that may help.
Item ACGCCCAC (double strand) [8-mer ACGCCCAC] with egrh-1 (C27C12.2) (Caenorhabditis elegans) - binding signal (PBM E-score (-0.5 to 0.5))? 0.494

Item CGCCCACG (double strand) [8-mer CGCCCACG] with egrh-1 (C27C12.2) (Caenorhabditis elegans) - binding signal (PBM E-score (-0.5 to 0.5))? 0.495

Item CGCCCCCG (double strand) [8-mer CGCCCCCG] with egrh-1 (C27C12.2) (Caenorhabditis elegans) - binding signal (PBM E-score (-0.5 to 0.5))? 0.496

Item CCCACGCA (double strand) [8-mer CCCACGCA] with egrh-1 (C27C12.2) (Caenorhabditis elegans) - binding signal (PBM E-score (-0.5 to 0.5))? 0.496

Item CCGCCCAC (double strand) [8-mer CCGCCCAC] with egrh-1 (C27C12.2) (Caenorhabditis elegans) - binding signal (PBM E-score (-0.5 to 0.5))? 0.494

Turning to the following sequence.
Item ACCCCCGC (double strand) [8-mer ACCCCCGC] with egrh-1 (C27C12.2) (Caenorhabditis elegans) - binding signal (PBM E-score (-0.5 to 0.5))? 0.485

---

Listed next: entries and their corresponding binding signal (PBM E-score (-0.5 to 0.5)).
Test system: syd-9 (ZK867.1) (Caenorhabditis elegans)
Sequence: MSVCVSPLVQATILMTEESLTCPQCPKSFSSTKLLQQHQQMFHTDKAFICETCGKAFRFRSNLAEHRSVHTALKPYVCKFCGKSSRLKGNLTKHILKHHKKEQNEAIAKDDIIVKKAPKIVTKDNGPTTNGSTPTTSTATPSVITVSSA
Keep the answer to the number alone.

The following sequences have reported results that may help.
Which binding signal (PBM E-score (-0.5 to 0.5)) is reported for this sequence? ACTGTACG (double strand) [8-mer ACTGTACG] 0.491

Which binding signal (PBM E-score (-0.5 to 0.5)) is reported for this sequence? ACTGTAAT (double strand) [8-mer ACTGTAAT] 0.489

Further cases:
Which binding signal (PBM E-score (-0.5 to 0.5)) is reported for this sequence? GTACAGTA (double strand) [8-mer GTACAGTA] 0.495

Which binding signal (PBM E-score (-0.5 to 0.5)) is reported for this sequence? TACTGTAA (double strand) [8-mer TACTGTAA] 0.494

Which binding signal (PBM E-score (-0.5 to 0.5)) is reported for this sequence? ACTGTACC (double strand) [8-mer ACTGTACC] 0.489

Which binding signal (PBM E-score (-0.5 to 0.5)) is reported for this sequence? GACTGTAC (double strand) [8-mer GACTGTAC] 0.49

Which binding signal (PBM E-score (-0.5 to 0.5)) is reported for this sequence? AACTGTAC (double strand) [8-mer AACTGTAC] 0.492

Which binding signal (PBM E-score (-0.5 to 0.5)) is reported for this sequence? TACAGTAA (double strand) [8-mer TACAGTAA] 0.494

Which binding signal (PBM E-score (-0.5 to 0.5)) is reported for this sequence? GTACGGTA (double strand) [8-mer GTACGGTA] 0.492

---

molecular target: nhr-34 (F58G6.5) (Caenorhabditis elegans)
VALUE TYPE: binding signal (PBM E-score (-0.5 to 0.5))
Keep the answer to the number alone.

Which binding signal (PBM E-score (-0.5 to 0.5)) is reported for this sequence? CAAGATCA (double strand) [8-mer CAAGATCA] 0.474

Which binding signal (PBM E-score (-0.5 to 0.5)) is reported for this sequence? CGAGATCA (double strand) [8-mer CGAGATCA] 0.472

Which binding signal (PBM E-score (-0.5 to 0.5)) is reported for this sequence? GGAGATCA (double strand) [8-mer GGAGATCA] 0.473

Which binding signal (PBM E-score (-0.5 to 0.5)) is reported for this sequence? AAGACCAA (double strand) [8-mer AAGACCAA] 0.473

Which binding signal (PBM E-score (-0.5 to 0.5)) is reported for this sequence? AAGATCAG (double strand) [8-mer AAGATCAG] 0.47

Which binding signal (PBM E-score (-0.5 to 0.5)) is reported for this sequence? GAAGATCA (double strand) [8-mer GAAGATCA] 0.466

---

Listed next: entries and their corresponding binding signal (PBM E-score (-0.5 to 0.5)).
Target: lsl-1 (F52F12.4) (Caenorhabditis elegans) (UniProt O02273)
Sequence: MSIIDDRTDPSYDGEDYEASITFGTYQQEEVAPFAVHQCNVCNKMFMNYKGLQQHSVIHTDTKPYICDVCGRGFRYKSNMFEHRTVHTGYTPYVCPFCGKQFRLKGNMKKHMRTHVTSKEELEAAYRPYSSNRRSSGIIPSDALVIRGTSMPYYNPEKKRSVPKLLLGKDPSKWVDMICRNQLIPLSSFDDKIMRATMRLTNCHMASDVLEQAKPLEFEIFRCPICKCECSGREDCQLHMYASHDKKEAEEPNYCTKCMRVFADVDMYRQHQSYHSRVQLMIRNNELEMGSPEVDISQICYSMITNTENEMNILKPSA
Keep the answer to the number alone.

The following sequences have reported results that may help.
Which binding signal (PBM E-score (-0.5 to 0.5)) is reported for this sequence? ATACTGTA (double strand) [8-mer ATACTGTA] 0.494

Which binding signal (PBM E-score (-0.5 to 0.5)) is reported for this sequence? GTACTGTA (double strand) [8-mer GTACTGTA] 0.497

Which binding signal (PBM E-score (-0.5 to 0.5)) is reported for this sequence? CTACTGTA (double strand) [8-mer CTACTGTA] 0.491

Which binding signal (PBM E-score (-0.5 to 0.5)) is reported for this sequence? CTACAGTA (double strand) [8-mer CTACAGTA] 0.498

Which binding signal (PBM E-score (-0.5 to 0.5)) is reported for this sequence? TACCGTAA (double strand) [8-mer TACCGTAA] 0.493

Which binding signal (PBM E-score (-0.5 to 0.5)) is reported for this sequence? ATACAGTA (double strand) [8-mer ATACAGTA] 0.491

Which binding signal (PBM E-score (-0.5 to 0.5)) is reported for this sequence? GTACAGTA (double strand) [8-mer GTACAGTA] 0.495

Which binding signal (PBM E-score (-0.5 to 0.5)) is reported for this sequence? CTACCGTA (double strand) [8-mer CTACCGTA] 0.498

Which binding signal (PBM E-score (-0.5 to 0.5)) is reported for this sequence? ATACCGTA (double strand) [8-mer ATACCGTA] 0.492

Which binding signal (PBM E-score (-0.5 to 0.5)) is reported for this sequence? TACAGTAA (double strand) [8-mer TACAGTAA] 0.495

Turning to the following sequence.
Which binding signal (PBM E-score (-0.5 to 0.5)) is reported for this sequence? TACTGTAA (double strand) [8-mer TACTGTAA] 0.49

---

Listed next: entries and their corresponding binding signal (PBM E-score (-0.5 to 0.5)).
Target: nhr-232 (Y22F5A.1) (Caenorhabditis elegans) (UniProt A0A486WVR6)
Sequence: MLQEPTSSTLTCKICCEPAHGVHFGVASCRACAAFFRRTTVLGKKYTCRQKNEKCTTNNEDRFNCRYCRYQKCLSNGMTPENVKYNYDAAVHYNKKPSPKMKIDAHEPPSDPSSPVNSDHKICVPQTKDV
Keep the answer to the number alone.

The following sequences have reported results that may help.
Which binding signal (PBM E-score (-0.5 to 0.5)) is reported for this sequence? AGTCACAC (double strand) [8-mer AGTCACAC] 0.48

Which binding signal (PBM E-score (-0.5 to 0.5)) is reported for this sequence? ATTGTGAC (double strand) [8-mer ATTGTGAC] 0.489

Which binding signal (PBM E-score (-0.5 to 0.5)) is reported for this sequence? ACACAAAA (double strand) [8-mer ACACAAAA] 0.465

Which binding signal (PBM E-score (-0.5 to 0.5)) is reported for this sequence? GTCACAAA (double strand) [8-mer GTCACAAA] 0.497

Further cases:
Which binding signal (PBM E-score (-0.5 to 0.5)) is reported for this sequence? AGGTCACA (double strand) [8-mer AGGTCACA] 0.455

Which binding signal (PBM E-score (-0.5 to 0.5)) is reported for this sequence? AGTCACAG (double strand) [8-mer AGTCACAG] 0.465

Which binding signal (PBM E-score (-0.5 to 0.5)) is reported for this sequence? GGACACAA (double strand) [8-mer GGACACAA] 0.473

Which binding signal (PBM E-score (-0.5 to 0.5)) is reported for this sequence? AGTCATAA (double strand) [8-mer AGTCATAA] 0.48
